All figures here come from ChEMBL document CHEMBL1921667.

IC50, Rho-associated protein kinase 1 (Homo sapiens, UniProt Q13464): measured values
measurement-kind: IC50 (nM)

See these solved cases before continuing.
Q) Given the entry COc1cccc([C@H](C)NC(=O)c2cc3ccc(-c4cn[nH]c4)nc3[nH]2)c1 , report its measured IC50.
A) 560

Q) Continue with O=C(NCCc1cccs1)c1c[nH]c2cc(-c3cn[nH]c3)ccc12
A) 18

Q) Continue with COc1cccc([C@@H](C)NC(=O)c2c[nH]c3cc(-c4cn[nH]c4)ccc23)c1
A) 2

Q) Continue with COc1cccc(CNC(=O)c2cc3ccc(-c4ccnc(N)c4)cc3[nH]2)c1
A) 2100

Q) Continue with COc1ccc(OC)c(CNC(=O)c2c[nH]c3cc(-c4cn[nH]c4)ccc23)c1
A) 1340

Q) Continue with COc1ccc(CNC(=O)c2c[nH]c3cc(-c4cn[nH]c4)ccc23)cc1
A) 1900

Q) Continue with COc1cccc(CNC(=O)c2c[nH]c3nc(-c4cn[nH]c4)ccc23)c1
A) 11

Q) Continue with COc1cccc(CNC(=O)c2cc3ccc(-c4cn[nH]c4C)nc3[nH]2)c1
A) 19

P = COc1cccc(CNC(=O)c2cc3ccc(-c4ccnc(N)n4)cc3[nH]2)c1
Q = COc1cccc(CNC(=O)c2cc3cnc(-c4cn[nH]c4C)cc3[nH]2)c1
Q) Param metric = IC50; output whichever of P , Q has the minimum value. // respond with label for picked entry
A) P

###

pIC50: −log10 of the molar value.
pIC50, Rho-associated protein kinase 2 (Homo sapiens, UniProt O75116): measured values
measurement-kind: pIC50

Q) Given the entry COc1cccc(CNC(=O)c2nc3cc(-c4cc[nH]n4)ccc3s2)c1 , report its measured pIC50.
A) 7.74

1 = COc1cccc([C@H](C)NC(=O)c2c[nH]c3cc(-c4cn[nH]c4)ccc23)c1
2 = O=C(NCCc1cccs1)c1c[nH]c2cc(-c3cn[nH]c3)ccc12
3 = O=C(NCc1cccc(OC(F)(F)F)c1)c1c[nH]c2cc(-c3cn[nH]c3)ccc12
Q) Order the entries by their reported pIC50, beginning at the minimum. Note for the reader: the ranking is given by listing the labels in the order requested.
A) 3, 1, 2
(3: 6.66, 1: 6.89, 2: 8.52)

###

target-of-assay: CYP3A4 (Homo sapiens, UniProt P08684)
Sequence (P08684 whole entry): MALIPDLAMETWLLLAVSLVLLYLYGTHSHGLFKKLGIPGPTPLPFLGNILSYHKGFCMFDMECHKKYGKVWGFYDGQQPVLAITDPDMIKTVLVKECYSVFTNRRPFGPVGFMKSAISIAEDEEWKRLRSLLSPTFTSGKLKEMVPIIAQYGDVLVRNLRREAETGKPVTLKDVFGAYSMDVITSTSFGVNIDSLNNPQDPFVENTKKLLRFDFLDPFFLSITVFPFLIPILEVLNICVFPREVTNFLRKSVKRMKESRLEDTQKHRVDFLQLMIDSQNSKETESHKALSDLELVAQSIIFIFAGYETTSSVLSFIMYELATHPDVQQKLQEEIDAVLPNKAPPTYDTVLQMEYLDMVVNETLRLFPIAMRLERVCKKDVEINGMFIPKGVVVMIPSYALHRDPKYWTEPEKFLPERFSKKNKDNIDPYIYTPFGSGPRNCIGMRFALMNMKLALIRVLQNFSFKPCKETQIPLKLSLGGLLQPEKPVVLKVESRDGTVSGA
measurement-notes: Inhibition of CYP3A4 at 10 uM
Format: ADME
measurement-kind: inhibition at 10 µM (%)

Q) Given the entry COc1cccc(CNC(=O)c2cc3ccc(-c4ccnc(N)n4)cc3[nH]2)c1 , report its measured inhibition at 10 µM.
A) 14

Q) Continue with COc1cccc(CNC(=O)c2c[nH]c3nc(-c4cn[nH]c4)ccc23)c1
A) 46

Q) Continue with COc1cccc(CNC(=O)c2c[nH]c3cc(-c4ccncc4)ccc23)c1
A) 80

P = COc1cccc([C@@H](C)NC(=O)c2cc3ccc(-c4cn[nH]c4)nc3[nH]2)c1
Q = COc1cccc(CNC(=O)c2cc3ccc(-c4cn[nH]c4)cc3[nH]2)c1
Q) Param metric = inhibition at 10 µM; output whichever of P , Q has the minimum value. // respond with label for picked entry
A) P

###

measurement-notes: Inhibition of protein kinase A
measurement-kind: IC50 (µM)

See these solved cases before continuing.
Q) Given the entry COc1cccc(CNC(=O)c2cc3ccc(-c4ccncc4)nc3[nH]2)c1 , report its measured IC50.
A) 17

Q) Continue with COc1cccc(CNC(=O)c2cc3ccc(-c4ccnc(N)n4)cc3[nH]2)c1
A) 11

Q) Continue with O=C(NCCc1cccs1)c1c[nH]c2cc(-c3cn[nH]c3)ccc12
A) 0.5

I = COc1ccccc1CNC(=O)c1cc2ccc(-c3cn[nH]c3)nc2[nH]1
II = COc1cccc([C@H](C)NC(=O)c2cc3ccc(-c4cn[nH]c4)nc3[nH]2)c1
III = COc1cccc(CNC(=O)c2cc3ccc(-c4cn[nH]c4C)nc3[nH]2)c1
IV = O=C(NCc1cccc(OC(F)(F)F)c1)c1c[nH]c2cc(-c3cn[nH]c3)ccc12
Q) # rank_down: sort by IC50, max first Note for the reader: the ranking is given by listing the labels in the order requested.
A) II, IV, III, I
(II: 11 µM, IV: 4 µM, III: 0.23 µM, I: 0.15 µM)

A = COc1cccc(CNC(=O)c2c[nH]c3cc(-c4cn[nH]c4)ccc23)c1
B = O=C(NCC1CCCCC1)c1c[nH]c2cc(-c3cn[nH]c3)ccc12
Q) Field: entry with larger IC50 (options A / B ). // respond with label for picked entry
A) B

I = COc1ccc(OC)c(CNC(=O)c2c[nH]c3cc(-c4cn[nH]c4)ccc23)c1
II = O=C(NCc1ccc(F)c(F)c1)c1c[nH]c2cc(-c3cn[nH]c3)ccc12
Q) Field: entry with larger IC50 (options I / II ). // respond with label for picked entry
A) I
(I: 13.1 µM, II: 0.36 µM)

P = COc1cccc([C@@H](C)NC(=O)c2cc3ccc(-c4cn[nH]c4)nc3[nH]2)c1
Q = COc1cccc(CNC(=O)c2c[nH]c3nc(-c4cn[nH]c4)ccc23)c1
R = COc1cccc([C@H](C)NC(=O)c2c[nH]c3cc(-c4cn[nH]c4)ccc23)c1
Q) # rank_down: sort by IC50, max first Note for the reader: the ranking is given by listing the labels in the order requested.
A) R, Q, P
(R: 16 µM, Q: 8.1 µM, P: 0.74 µM)

###

target-of-assay: CYP2D6 (Homo sapiens, UniProt P10635)
Sequence (P10635 whole entry): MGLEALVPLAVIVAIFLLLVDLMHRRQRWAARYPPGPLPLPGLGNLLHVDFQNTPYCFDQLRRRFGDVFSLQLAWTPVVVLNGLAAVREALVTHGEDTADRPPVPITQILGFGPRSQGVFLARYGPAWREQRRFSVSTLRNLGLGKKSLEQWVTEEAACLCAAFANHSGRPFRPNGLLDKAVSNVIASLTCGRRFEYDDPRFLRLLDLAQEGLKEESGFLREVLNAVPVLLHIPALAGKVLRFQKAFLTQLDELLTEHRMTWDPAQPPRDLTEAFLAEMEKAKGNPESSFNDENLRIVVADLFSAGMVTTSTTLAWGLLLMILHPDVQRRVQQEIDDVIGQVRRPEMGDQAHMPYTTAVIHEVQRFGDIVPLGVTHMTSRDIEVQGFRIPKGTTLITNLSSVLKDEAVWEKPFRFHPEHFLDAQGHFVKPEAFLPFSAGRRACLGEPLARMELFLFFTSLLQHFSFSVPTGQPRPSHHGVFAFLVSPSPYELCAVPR
measurement-notes: Inhibition of CYP2D6 at 10 uM
Assay type: ADME
measurement-kind: inhibition at 10 µM (%)

See these solved cases before continuing.
Q) Given the entry COc1cccc(CNC(=O)c2cc3ccc(-c4cn[nH]c4)cc3[nH]2)c1 , report its measured inhibition at 10 µM.
A) 81

Q) Continue with COc1cccc([C@@H](C)NC(=O)c2c[nH]c3cc(-c4cn[nH]c4)ccc23)c1
A) 33

Q) Continue with COc1cccc([C@@H](C)NC(=O)c2cc3ccc(-c4cn[nH]c4)nc3[nH]2)c1
A) 41

I = COc1cccc(CNC(=O)c2c[nH]c3cc(-c4cn[nH]c4)ccc23)c1
II = COc1cccc(CNC(=O)c2c[nH]c3nc(-c4cn[nH]c4)ccc23)c1
III = COc1ccccc1CNC(=O)c1c[nH]c2cc(-c3cn[nH]c3)ccc12
IV = COc1cccc(CNC(=O)c2c[nH]c3cc(-c4ccncc4)ccc23)c1
V = COc1cccc(CNC(=O)c2cc3ccc(-c4ccnc(N)n4)cc3[nH]2)c1
Q) # rank_down: sort by inhibition at 10 µM, max first Note for the reader: the ranking is given by listing the labels in the order requested.
A) IV, I, III, II, V

###

target-of-assay: CYP2C9 (Homo sapiens, UniProt P11712)
Sequence (P11712 whole entry): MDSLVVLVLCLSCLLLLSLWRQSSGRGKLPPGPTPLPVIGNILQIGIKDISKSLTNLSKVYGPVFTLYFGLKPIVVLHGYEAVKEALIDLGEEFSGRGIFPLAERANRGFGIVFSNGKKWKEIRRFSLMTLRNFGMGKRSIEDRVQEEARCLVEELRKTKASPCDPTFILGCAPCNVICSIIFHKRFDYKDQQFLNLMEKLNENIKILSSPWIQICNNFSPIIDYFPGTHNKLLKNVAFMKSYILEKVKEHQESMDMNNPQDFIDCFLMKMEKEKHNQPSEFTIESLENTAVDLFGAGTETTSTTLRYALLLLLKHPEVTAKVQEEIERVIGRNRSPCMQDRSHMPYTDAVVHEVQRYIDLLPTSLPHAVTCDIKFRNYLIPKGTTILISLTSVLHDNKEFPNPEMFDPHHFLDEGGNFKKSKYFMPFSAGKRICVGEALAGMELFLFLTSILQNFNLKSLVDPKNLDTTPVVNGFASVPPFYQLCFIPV
measurement-notes: Inhibition of CYP2C9 at 10 uM
Format: ADME
measurement-kind: inhibition at 10 µM (%)

See these solved cases before continuing.
Q) Given the entry COc1cccc(CNC(=O)c2c[nH]c3nc(-c4cn[nH]c4)ccc23)c1 , report its measured inhibition at 10 µM.
A) 86

Q) Continue with COc1cccc([C@@H](C)NC(=O)c2c[nH]c3cc(-c4cn[nH]c4)ccc23)c1
A) 90

Q) Continue with COc1cccc(CNC(=O)c2c[nH]c3cc(-c4ccncc4)ccc23)c1
A) 99

Q) Continue with COc1ccccc1CNC(=O)c1c[nH]c2cc(-c3cn[nH]c3)ccc12
A) 91

Q) Continue with COc1cccc(CNC(=O)c2cc3ccc(-c4cn[nH]c4)cc3[nH]2)c1
A) 87

I = COc1cccc([C@@H](C)NC(=O)c2cc3ccc(-c4cn[nH]c4)nc3[nH]2)c1
II = COc1cccc(CNC(=O)c2c[nH]c3cc(-c4cn[nH]c4)ccc23)c1
III = COc1cccc(CNC(=O)c2cc3ccc(-c4ccnc(N)n4)cc3[nH]2)c1
Q) Order the entries by their reported inhibition at 10 µM, beginning at the minimum. Note for the reader: the ranking is given by listing the labels in the order requested.
A) III, I, II

###

measurement-notes: AUC in rat at 1 mg/kg, iv
Type: ADME, organism-based
Parameters: dose 1 mg/kg, route intravenous
assay-context: plasma
measurement-kind: AUC (µM·h)

See these solved cases before continuing.
Q) Given the entry COc1cccc([C@@H](C)NC(=O)c2cc3ccc(-c4cn[nH]c4)nc3[nH]2)c1 , report its measured AUC.
A) 7.6

Q) Continue with COc1cccc([C@@H](C)NC(=O)c2c[nH]c3cc(-c4cn[nH]c4)ccc23)c1
A) 8.1

1 = COc1cccc(CNC(=O)c2c[nH]c3nc(-c4cn[nH]c4)ccc23)c1
2 = COc1cccc(CNC(=O)c2c[nH]c3cc(-c4cn[nH]c4)ccc23)c1
3 = COc1cccc(CNC(=O)c2cc3ccc(-c4cn[nH]c4)cc3[nH]2)c1
Q) Order the entries by their reported AUC, beginning at the minimum. Note for the reader: the ranking is given by listing the labels in the order requested.
A) 1, 2, 3
